- ASSAYED_TARGET: Choline trimethylamine-lyase (Desulfovibrio alaskensis)
- Sequence (Q30W70 whole entry): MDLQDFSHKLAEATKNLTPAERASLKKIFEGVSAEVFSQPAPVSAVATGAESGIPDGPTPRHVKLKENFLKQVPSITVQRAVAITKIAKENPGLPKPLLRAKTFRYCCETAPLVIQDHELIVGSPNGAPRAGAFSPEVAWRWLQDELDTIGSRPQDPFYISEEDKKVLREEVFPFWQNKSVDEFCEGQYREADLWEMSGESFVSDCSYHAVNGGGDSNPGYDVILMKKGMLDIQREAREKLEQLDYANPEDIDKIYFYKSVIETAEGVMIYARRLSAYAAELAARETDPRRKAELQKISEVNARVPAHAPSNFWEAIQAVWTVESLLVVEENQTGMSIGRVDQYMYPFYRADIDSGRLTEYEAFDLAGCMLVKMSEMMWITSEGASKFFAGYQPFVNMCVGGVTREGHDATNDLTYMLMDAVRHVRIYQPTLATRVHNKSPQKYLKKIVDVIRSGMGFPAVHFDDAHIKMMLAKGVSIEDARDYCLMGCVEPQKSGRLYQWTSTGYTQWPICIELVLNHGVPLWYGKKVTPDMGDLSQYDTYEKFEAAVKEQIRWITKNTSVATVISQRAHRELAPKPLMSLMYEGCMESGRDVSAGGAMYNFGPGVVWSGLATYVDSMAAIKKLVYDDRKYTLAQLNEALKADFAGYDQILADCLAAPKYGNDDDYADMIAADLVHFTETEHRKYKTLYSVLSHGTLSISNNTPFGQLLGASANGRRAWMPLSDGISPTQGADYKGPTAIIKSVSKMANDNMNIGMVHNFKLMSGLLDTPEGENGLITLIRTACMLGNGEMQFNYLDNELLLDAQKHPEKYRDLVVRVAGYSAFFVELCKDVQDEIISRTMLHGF
- EXPERIMENTAL_DETAILS: Inhibition of Desulfovibrio desulfuricans (strain G20) CutC assessed as reduction in TMA by spectrophotometry
Form field: IC50 (one value per entry).
TEST_READOUT: IC50

MOLECULE | TEST_READOUT | VAL
OC1C=CCN(C2CCC2)C1 (configuration not stated) | IC50 | 200 µM
CN1CCCC(=O)C1 | IC50 | > 10000 µM

====

- EXPERIMENTAL_DETAILS: Inhibition of Clostridium sporogenes CutC assessed as TMA formation by LC-MS/MS

CHEM_SMILES | UNIT_ABBREVIATION | IC50
CN1CC=C[C@H](O)C1 | µM | 12
C[N+](C)(C)CC=O | µM | 1000
